biological target: IL-23R-expressing DB cells (Homo sapiens); assay: DB cells IL23R pSTAT3 cell assay (pStat3HTRF); conditions: DB cells stimulated with IL-23 0.5 nM, 30 minutes, phospho-STAT3 in cell lysates; read-out: pStat3 HTRF
Sequence (Q5VWK5 24-629 limits assumed): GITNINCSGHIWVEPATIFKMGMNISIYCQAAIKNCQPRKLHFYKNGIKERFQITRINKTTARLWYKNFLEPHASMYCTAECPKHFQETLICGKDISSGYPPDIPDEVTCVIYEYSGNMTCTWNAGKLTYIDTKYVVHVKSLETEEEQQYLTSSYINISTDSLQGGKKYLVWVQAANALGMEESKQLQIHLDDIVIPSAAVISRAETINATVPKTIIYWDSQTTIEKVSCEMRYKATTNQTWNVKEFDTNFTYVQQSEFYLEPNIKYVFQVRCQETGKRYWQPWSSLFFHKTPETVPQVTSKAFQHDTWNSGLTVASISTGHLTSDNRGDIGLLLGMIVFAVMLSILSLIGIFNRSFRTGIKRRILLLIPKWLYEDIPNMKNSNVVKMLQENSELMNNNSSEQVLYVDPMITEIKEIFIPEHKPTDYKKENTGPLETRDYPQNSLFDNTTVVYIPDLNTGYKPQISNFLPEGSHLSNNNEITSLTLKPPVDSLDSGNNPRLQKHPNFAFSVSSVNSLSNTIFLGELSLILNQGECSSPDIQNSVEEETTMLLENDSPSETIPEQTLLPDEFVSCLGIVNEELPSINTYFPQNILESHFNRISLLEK
Bridge positions count the residues as written; N and C are the ends. Square brackets hold non-standard residues; d marks the D form. Peptide text beside a SMILES is read from it. Trp(7-Me) = Cc1cccc2c(C[C@H](N)C(=O)O)c[nH]c12; 2Nal = N[C@@H](Cc1ccc2ccccc2c1)C(=O)O; AEF = NCCOc1ccc(C[C@H](N)C(=O)O)cc1; Cit = NC(=O)NCCC[C@H](N)C(=O)O; Pen = CC(C)(S)[C@H](N)C(=O)O; αMeK = C[C@](N)(CCCCN)C(=O)O; βAla = NCCC(=O)O
The following compounds are listed with their measured IC50 values.
attribute_measured: IC50 (nM)

- CC(=O)NCCCC[C@H](NC(=O)[C@](C)(CCCCN)NC(=O)[C@H](Cc1ccc2ccccc2c1)NC(=O)[C@H](Cc1ccc(OCCN)cc1)NC(=O)[C@H]1NC(=O)[C@H](CCC(N)=O)NC(=O)[C@H](Cc2c[nH]c3c(C)cccc23)NC(=O)[C@H]([C@@H](C)O)NC(=O)[C@H](CC(N)=O)NC(=O)[C@@H](NC(C)=O)C(C)(C)SSC1(C)C)C(=O)N[C@@H](CC(N)=O)C(=O)NCCC(N)=O [compound 267]: 0.506
- CC(=O)NCCCC[C@H](NC(=O)[C@](C)(CCCCN)NC(=O)[C@H](Cc1ccc2ccccc2c1)NC(=O)[C@H](Cc1ccc(OCCN)cc1)NC(=O)[C@H]1NC(=O)[C@H](CCC(N)=O)NC(=O)[C@H](Cc2c[nH]c3c(C)cccc23)NC(=O)[C@H]([C@@H](C)O)NC(=O)[C@H](CC(N)=O)NC(=O)[C@@H](NC(C)=O)C(C)(C)SSC1(C)C)C(=O)N[C@@H](CC(N)=O)C(=O)NCCC(N)=O [compound 202]: 1.1
- CC(=O)N[C@@H]1C(=O)N[C@@H](CC(N)=O)C(=O)N[C@@H]([C@@H](C)O)C(=O)N[C@@H](Cc2c[nH]c3c(C)cccc23)C(=O)N[C@@H](CCCNC(N)=O)C(=O)N[C@H](C(=O)N[C@@H](Cc2ccc(OCCN)cc2)C(=O)N[C@@H](Cc2ccc3ccccc3c2)C(=O)N[C@@](C)(CCCCN)C(=O)N[C@@H](CCCNC(N)=O)C(=O)NCCC(=O)NCCC(N)=O)C(C)(C)SSC1(C)C [compound 281] (Ac-[Pen]NT[Trp(7-Me)][Cit][Pen][AEF][2Nal][αMeK][Cit][βAla][βAla]-NH2; disulfide 1-6): 17.7
- CC(=O)NCCCC[C@H](NC(=O)[C@](C)(CC(C)C)NC(=O)[C@H](Cc1ccc2ccccc2c1)NC(=O)[C@H](Cc1ccc(OCCN)cc1)NC(=O)[C@H]1NC(=O)[C@H](CCC(N)=O)NC(=O)[C@H](Cc2c[nH]c3c(C)cccc23)NC(=O)[C@H]([C@@H](C)O)NC(=O)[C@H](CC(N)=O)NC(=O)[C@@H](NC(C)=O)C(C)(C)SSC1(C)C)C(=O)N1CCC[C@H]1C(=O)NCCC(N)=O: 178
- CCCCCCCC(=O)NCCCC[C@H](NC(=O)[C@](C)(CCCCN)NC(=O)[C@H](Cc1ccc2ccccc2c1)NC(=O)[C@H](Cc1ccc(OCCN)cc1)NC(=O)[C@H]1NC(=O)[C@H](CCCCNC(C)=O)NC(=O)[C@H](Cc2c[nH]c3c(C)cccc23)NC(=O)[C@H]([C@@H](C)O)NC(=O)[C@H](CC(N)=O)NC(=O)[C@@H](NC(C)=O)C(C)(C)SSC1(C)C)C(=O)N[C@@H](CC(N)=O)C(=O)N[C@H](CC(C)C)C(N)=O: 3.03

Data origin, for the record: patent US11041000B2
